Experiment: Solubility in acetonitrile, determined by 1H NMR spectroscopy
Assay type: physicochemical
Details: organic solvent or mixture, thermodynamic from solid; pure compound in acetonitrile, room temperature; read-out: Solubility of the single component
OUTCOME MEASURE: solubility (mM)

c1ccc(N2c3ccccc3Sc3ccccc32)cc1: 140

(I) CCN1c2ccccc2Sc2ccccc21
(II) CN1c2ccccc2Sc2ccccc21
Between item I and item II , which reported solubility is smaller? Pick one; state its label.
I
